Every entry's value here was drawn from ChEMBL document CHEMBL4402533.

- experimentSummary: Partition coefficient, log P of the compound
- Type: physicochemical
- assayContext: octanol/water
measuredParameter: logP

Q) So what does the record say about logP for COc1cc(/C=C/C(=O)CC(=O)/C=C/c2ccc(O)c(OC)c2)ccc1O [CURCUMIN] ?
A) 2.3 to 2.6
